Molecular target: Androgen receptor (Homo sapiens)
Sequence (P10275 whole entry): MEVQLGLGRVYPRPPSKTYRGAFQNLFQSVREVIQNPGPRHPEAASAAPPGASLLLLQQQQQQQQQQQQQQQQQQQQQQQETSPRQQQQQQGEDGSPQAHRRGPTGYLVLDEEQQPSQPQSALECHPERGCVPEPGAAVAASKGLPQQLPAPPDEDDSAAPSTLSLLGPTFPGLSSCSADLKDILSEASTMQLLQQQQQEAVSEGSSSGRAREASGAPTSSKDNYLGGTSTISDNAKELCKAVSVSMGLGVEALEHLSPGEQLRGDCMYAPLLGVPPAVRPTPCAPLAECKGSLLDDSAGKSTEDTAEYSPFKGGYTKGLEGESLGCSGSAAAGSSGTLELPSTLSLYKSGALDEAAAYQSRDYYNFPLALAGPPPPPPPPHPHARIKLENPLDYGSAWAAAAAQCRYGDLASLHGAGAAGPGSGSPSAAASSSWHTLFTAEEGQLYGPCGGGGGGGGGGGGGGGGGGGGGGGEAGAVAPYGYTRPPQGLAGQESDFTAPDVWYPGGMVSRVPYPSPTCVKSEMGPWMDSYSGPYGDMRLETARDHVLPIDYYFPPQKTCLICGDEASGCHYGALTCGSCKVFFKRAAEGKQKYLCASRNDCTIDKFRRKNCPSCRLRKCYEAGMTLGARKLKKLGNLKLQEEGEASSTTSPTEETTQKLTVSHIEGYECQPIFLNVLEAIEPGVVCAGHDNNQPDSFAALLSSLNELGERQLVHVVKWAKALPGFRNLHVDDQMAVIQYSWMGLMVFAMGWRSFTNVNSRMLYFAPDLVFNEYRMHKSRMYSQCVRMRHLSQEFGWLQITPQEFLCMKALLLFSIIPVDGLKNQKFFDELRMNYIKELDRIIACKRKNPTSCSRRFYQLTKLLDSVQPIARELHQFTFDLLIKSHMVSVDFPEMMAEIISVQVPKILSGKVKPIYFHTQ
Experiment: Antagonist activity at human androgen receptor expressed in HEK293 cells assessed as inhibition of transcriptional activity by luciferase and beta-galactosidase reporter gene assay
Result type: IC50 (µM)

compound=CC[Si](CC)(c1ccc(OCC(=O)C(C)(C)C)c(C)c1)c1ccc(OCC(=O)C(C)(C)C)c(C)c1 uom=µM qual== result=6.2
compound=CC[Si](CC)(c1ccc(NC[C@@H](O)CO)c(C)c1)c1ccc(OCC(=O)C(C)(C)C)c(C)c1 uom=µM qual=> result=10
compound="CC[Si](CC)(c1ccc(OCC(O)CO)c(C)c1)c1ccc(OCC(O)C(C)(C)C)c(C)c1 (mixture of isomers)" uom=µM qual== result=6.8
compound="CC[Si](CC)(c1ccc(OCC(=O)C(C)(C)C)c(C)c1)c1ccc(OCC2CO2)c(C)c1 (racemic)" uom=µM qual=> result=10

Attribution: ChEMBL document CHEMBL2331115
